// values below are reported log10 Kb
molecular target: endothelin-induced contractions in isolated rat aorta rings (Rattus norvegicus, UniProt P26684); construct: cut out from the thorax aorta of adult Wistar-Kyoto rats; from tissue; host or cells: thoracic aorta rings of adult Wistar-Kyoto rats, endothelium removed; assay: Inhibition of endothelin-induced contractions in isolated rat aorta rings; type: cell-based, rat (Wistar-Kyoto); settings: read-out: pA2 value; Dose ratio (switch to the right) (converted)
Sequence (P26684 21-426): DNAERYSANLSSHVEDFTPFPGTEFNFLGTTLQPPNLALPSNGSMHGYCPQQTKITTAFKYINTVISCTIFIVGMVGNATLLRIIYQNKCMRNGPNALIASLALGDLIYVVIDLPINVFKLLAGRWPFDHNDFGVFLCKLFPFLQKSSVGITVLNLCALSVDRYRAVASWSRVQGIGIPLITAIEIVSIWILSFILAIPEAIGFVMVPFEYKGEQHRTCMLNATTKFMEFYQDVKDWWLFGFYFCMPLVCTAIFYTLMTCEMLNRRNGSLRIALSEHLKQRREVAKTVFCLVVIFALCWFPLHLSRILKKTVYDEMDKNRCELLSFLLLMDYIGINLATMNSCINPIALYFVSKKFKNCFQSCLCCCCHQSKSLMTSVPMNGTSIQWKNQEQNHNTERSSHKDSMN
Answers are given as log10 of Kb in nM.

Worked cases, log10 Kb given:
{"columns": ["substanceSmiles", "reportedMeasurement"],
 "data": [
  ["COc1ccccc1Oc1c(NS(=O)(=O)c2ccccc2)nc(-c2ccnc(-c3nnn[nH]3)c2)nc1OCCOC(=O)Nc1ccccn1", -0.50],
  ["COc1ccccc1Oc1c(NS(=O)(=O)c2ccc(C)cn2)nc(-c2ccnc(-c3nnn[nH]3)c2)nc1OCCO", -1.00],
  ["COc1ccccc1Oc1c(NS(=O)(=O)c2ccc3c(c2)OCO3)nc(-c2ccnc(-c3nnn[nH]3)c2)nc1OCCOC(=O)Nc1ccccn1", -1.60],
  ["COc1ccccc1Oc1c(NS(=O)(=O)c2ccc(C(C)(C)C)cc2)nc(-c2ccnc(-c3nnn[nH]3)c2)nc1OCCOC(=O)Nc1ccccn1", -0.60],
  ["COc1ccccc1Oc1c(NS(=O)(=O)c2ccc(SC)cc2)nc(-c2ccnc(-c3nnn[nH]3)c2)nc1OCCOC(=O)Nc1ccccn1", -1.20]
]}

// query Note down log10 Kb recorded for COc1ccccc1Oc1c(NS(=O)(=O)c2ccc(C)cc2)nc(-c2ccnc(-c3nnn[nH]3)c2)nc1OCCOC(=O)Nc1ccccn1
// result -0.40
